Hey, just so you know, these numbers are from patent US20250163054A1.

Target: human TLR8 (Homo sapiens)
Sequence (Q9NR97 27-1041): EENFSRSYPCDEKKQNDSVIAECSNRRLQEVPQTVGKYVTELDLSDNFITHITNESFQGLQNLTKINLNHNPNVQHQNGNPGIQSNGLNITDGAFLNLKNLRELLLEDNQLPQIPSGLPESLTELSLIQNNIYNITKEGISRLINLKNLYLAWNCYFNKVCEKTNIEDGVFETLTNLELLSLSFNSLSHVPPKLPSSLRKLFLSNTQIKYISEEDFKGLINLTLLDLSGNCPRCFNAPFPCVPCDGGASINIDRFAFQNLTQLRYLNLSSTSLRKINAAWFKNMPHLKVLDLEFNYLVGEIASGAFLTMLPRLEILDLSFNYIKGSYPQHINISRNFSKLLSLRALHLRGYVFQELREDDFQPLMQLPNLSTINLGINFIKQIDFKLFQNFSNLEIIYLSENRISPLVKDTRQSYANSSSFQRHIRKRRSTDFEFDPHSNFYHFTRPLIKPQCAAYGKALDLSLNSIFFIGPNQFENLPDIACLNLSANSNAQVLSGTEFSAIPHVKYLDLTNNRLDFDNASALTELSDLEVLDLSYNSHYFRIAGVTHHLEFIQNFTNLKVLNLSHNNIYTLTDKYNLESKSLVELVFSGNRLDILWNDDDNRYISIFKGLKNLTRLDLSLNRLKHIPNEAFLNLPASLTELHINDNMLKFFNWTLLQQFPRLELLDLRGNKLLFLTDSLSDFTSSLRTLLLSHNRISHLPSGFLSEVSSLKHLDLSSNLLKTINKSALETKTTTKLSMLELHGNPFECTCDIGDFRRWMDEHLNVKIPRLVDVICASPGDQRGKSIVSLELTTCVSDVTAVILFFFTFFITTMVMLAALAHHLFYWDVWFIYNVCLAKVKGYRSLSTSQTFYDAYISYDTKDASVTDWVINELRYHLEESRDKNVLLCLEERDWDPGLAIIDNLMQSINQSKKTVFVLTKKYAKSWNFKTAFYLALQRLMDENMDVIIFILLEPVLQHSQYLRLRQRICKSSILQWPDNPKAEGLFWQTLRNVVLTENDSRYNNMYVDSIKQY
Assay: TLR7/8/9 Inhibition Reporter Assays (TLR8)
Settings: HEK-Blue cells overexpressing human TLR8, SEAP reporter, stimulated with TLR8 ligand R848
Method: HEK-Blue™-cells (Invivogen) overexpressing human TLR7, TLR8 or TLR9 receptors were used for screening inhibitors of these receptors using an inducible SEAP (secreted embryonic alkaline phosphatase) reporter gene under the control of the IFN-β minimal promoter fused to five NF-κB and AP-1-binding sites. […] The percent inhibition is determined as the % reduction in the HEK-Blue signal present in wells treated with agonist plus DMSO alone compared to wells treated with a known inhibitor.
Listed here are compounds together with their documented IC50.
Endpoint name: IC50

Cc1nc(C2CCN(C3CCN(CC(C)C)CC3)CC2)cc2c1nc(-c1ccc(S(C)(=O)=O)cc1)n2C    > 50 µM
COc1ccc(-c2nc3c(C)nc(-c4ccc(N5CCN(CC(C)C)CC5)cc4)cc3n2C)cc1OC    12 µM
CC(C)N1CCN(c2ccc(-c3cc4c(cn3)nc(-c3ccc(S(C)(=O)=O)cc3)n4C)cc2)CC1    0.44 µM
COc1ccc(-c2nc3c(C)nc(-c4ccc(N5CC6(CN(CC(C)(C)O)C6)C5)cc4)cc3n2C)cc1OC    > 50 µM
COc1ccc(-c2nc3c(C)nc(-c4ccc(N5CCC6(CC5)CN(CC(C)(C)O)C6)cc4)cc3n2C)cc1OC    > 50 µM
CC(C)N1CC2(CCN(c3ccc(-c4cc5c(cn4)nc(-c4ccc(S(C)(=O)=O)cc4)n5C)cc3)C2)C1    0.79 µM
COc1ccc(-c2nc3cnc(-c4ccc(N5CC6(C5)CN(C(C)C)C6)cc4)cc3n2C2CC2)cc1OC    2.2 µM

----------
Target: human TLR8 (Homo sapiens, UniProt Q9NR97)
Construct: host or cells: HEK-Blue cells (HEK293-derived reporter line)
Sequence (Q9NR97 27-1041): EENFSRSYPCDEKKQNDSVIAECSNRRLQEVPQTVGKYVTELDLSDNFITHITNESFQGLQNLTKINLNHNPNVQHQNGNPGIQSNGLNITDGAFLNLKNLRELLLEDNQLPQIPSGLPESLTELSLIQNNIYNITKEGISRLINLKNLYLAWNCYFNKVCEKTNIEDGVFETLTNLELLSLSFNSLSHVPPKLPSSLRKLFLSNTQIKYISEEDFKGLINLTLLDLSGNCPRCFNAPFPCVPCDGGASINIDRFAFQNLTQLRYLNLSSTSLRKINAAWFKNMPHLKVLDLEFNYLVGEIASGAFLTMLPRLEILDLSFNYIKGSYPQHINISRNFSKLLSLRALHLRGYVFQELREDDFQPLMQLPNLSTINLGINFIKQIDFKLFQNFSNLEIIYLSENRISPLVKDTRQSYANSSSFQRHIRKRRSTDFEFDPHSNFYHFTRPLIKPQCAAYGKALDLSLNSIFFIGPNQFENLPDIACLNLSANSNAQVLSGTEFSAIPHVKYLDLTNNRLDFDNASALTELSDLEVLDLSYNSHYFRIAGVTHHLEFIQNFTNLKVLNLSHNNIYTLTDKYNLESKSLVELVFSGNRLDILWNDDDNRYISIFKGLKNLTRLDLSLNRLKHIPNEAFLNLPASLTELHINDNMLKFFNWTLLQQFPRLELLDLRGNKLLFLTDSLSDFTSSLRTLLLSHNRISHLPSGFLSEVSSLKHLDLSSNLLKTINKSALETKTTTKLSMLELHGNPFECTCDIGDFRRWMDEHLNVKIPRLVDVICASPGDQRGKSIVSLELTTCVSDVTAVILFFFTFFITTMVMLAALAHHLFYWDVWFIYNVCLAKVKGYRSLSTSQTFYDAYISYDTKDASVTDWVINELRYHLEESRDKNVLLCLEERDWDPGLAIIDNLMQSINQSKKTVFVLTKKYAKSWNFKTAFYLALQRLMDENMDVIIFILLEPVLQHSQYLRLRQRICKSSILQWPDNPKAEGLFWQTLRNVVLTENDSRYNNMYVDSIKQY
Experiment: TLR7/8/9 Inhibition Reporter Assays (TLR8)
Format: cell-based
Conditions: HEK-Blue cells overexpressing human TLR8, SEAP reporter, stimulated with TLR8 ligand R848
Measured IC50, listed per entry for reference.
Endpoint name: IC50 (µM)

COc1ccc(-c2nc3c(C)nc(-c4ccc(N5CCC6(CC5)CN(C5CCC5)C6)cc4)cc3n2C)cc1OC [Example 80]    15
Cc1nc(-c2ccc(N3CCC4(CC3)CN(CC(C)(C)O)C4)cc2)cc2c1nc(-c1ccc(S(C)(=O)=O)cc1)n2C [Example 91]    6.8
Cc1nc(-c2ccc(N3CC4(CCN(CC(C)(C)O)CC4)C3)cc2)cc2c1nc(-c1ccc(S(C)(=O)=O)cc1)n2C [Example 100]    2.2
Cc1nc(-c2ccc(N3CC4(CN(CC(C)(C)O)C4)C3)cc2)cc2c1nc(-c1ccc(S(C)(=O)=O)cc1)n2C [Example 97]    6.8

----------
Recorded measurements of pIC50, one per entry
Target: human TLR9 (Homo sapiens)
Sequence (Q9NR96 26-1032): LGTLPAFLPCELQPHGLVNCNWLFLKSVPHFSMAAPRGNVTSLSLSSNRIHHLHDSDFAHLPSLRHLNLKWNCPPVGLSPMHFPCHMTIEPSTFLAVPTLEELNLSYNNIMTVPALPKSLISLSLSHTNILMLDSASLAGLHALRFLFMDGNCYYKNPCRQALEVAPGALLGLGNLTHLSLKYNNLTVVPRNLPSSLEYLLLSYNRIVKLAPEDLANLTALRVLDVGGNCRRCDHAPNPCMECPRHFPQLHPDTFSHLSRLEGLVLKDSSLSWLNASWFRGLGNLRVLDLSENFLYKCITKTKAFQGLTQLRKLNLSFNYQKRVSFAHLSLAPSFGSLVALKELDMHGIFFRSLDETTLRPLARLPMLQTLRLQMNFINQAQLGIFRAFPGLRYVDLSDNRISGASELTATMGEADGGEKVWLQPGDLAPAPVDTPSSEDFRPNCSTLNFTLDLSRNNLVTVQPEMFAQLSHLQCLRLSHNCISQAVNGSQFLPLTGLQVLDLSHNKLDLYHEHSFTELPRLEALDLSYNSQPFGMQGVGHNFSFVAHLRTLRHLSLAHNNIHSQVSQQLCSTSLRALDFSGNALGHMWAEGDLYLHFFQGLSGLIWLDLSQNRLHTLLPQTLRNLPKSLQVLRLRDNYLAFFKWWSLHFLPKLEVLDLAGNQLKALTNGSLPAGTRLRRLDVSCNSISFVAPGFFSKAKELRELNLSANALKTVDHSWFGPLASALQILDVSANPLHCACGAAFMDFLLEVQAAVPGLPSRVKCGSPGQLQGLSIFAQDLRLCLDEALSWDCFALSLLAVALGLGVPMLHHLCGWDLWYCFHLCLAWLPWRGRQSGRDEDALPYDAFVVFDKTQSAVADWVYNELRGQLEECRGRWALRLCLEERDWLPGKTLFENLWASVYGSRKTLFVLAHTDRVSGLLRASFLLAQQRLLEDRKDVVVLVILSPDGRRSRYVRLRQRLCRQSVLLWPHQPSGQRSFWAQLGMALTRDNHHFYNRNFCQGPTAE
Assay: TLR7/8/9 Inhibition Reporter Assays (TLR9)
Conditions: HEK-Blue cells overexpressing human TLR9, SEAP reporter, stimulated with TLR9 ligand ODN2006
Description: HEK-Blue™-cells (Invivogen) overexpressing human TLR7, TLR8 or TLR9 receptors were used for screening inhibitors of these receptors using an inducible SEAP (secreted embryonic alkaline phosphatase) reporter gene under the control of the IFN-β minimal promoter fused to five NF-κB and AP-1-binding sites. […] The percent inhibition is determined as the % reduction in the HEK-Blue signal present in wells treated with agonist plus DMSO alone compared to wells treated with a known inhibitor.
pIC50: −log10 of the molar value.
Endpoint name: pIC50

COCCN1CC2(C1)CN(c1ccc(-c3cc4c(nc(-c5ccc(S(C)(=O)=O)cc5)n4C)c(C)n3)cc1)C2    6.68
COCCN1CC2(CCN(c3ccc(-c4cc5c(nc(-c6ccc(OC)c(OC)c6)n5C)c(C)n4)cc3)CC2)C1    6.85
Cc1nc(-c2ccc(C3CCN(C4CCOCC4)CC3)cc2)cc2c1nc(-c1ccc(S(C)(=O)=O)cc1)n2C    6.51
Cc1nc(-c2ccc(C3CCN(C(C)C)CC3)cc2)cc2c1nc(-c1ccc(S(C)(=O)=O)cc1)n2C    6.52
Cc1nc(-c2ccc(N3CCC(N4CCCC4)CC3)cc2)cc2c1nc(-c1ccc(S(C)(=O)=O)cc1)n2C    6.96
CC(C)CN1CC2(CCN(c3ccc(-c4cc5c(cn4)nc(-c4ccc(S(C)(=O)=O)cc4)n5C)cc3)CC2)C1    6.62
Cc1nc(-c2ccc(N3CCN(CC4CC4)CC3)cc2)cc2c1nc(-c1ccc(S(C)(=O)=O)cc1)n2C    6.44
Cc1nc(-c2ccc(N3CC4(CN(CC(C)(C)O)C4)C3)cc2)cc2c1nc(-c1ccc(S(C)(=O)=O)cc1)n2C    7.11
CC(C)N1CCC(N2CCC(c3cc4c(cn3)nc(-c3ccc(S(C)(=O)=O)cc3)n4C)CC2)CC1    5.85
Cc1nc(-c2ccc(C3CCN(C)CC3)cc2)cc2c1nc(-c1ccc(S(C)(=O)=O)cc1)n2C    6.64
Cc1nc(-c2ccc(N3CC4(C3)CN(C(C)C)C4)cc2)cc2c1nc(-c1ccc(S(C)(=O)=O)cc1)n2C    6.89
COc1cc(-c2nc3c(C)nc(-c4ccc(N5CCN(CC(C)C)CC5)cc4)cc3n2C)cn2ncnc12    5.77
Cc1nc(-c2ccc(N3CCC(N4CCCC4)CC3)cc2F)cc2c1nc(-c1ccc(S(C)(=O)=O)cc1)n2C    6.54
Cc1nc(-c2ccc(N3CCN(C(C)C)CC3)cc2)cc2c1nc(-c1ccc(S(C)(=O)=O)cc1)n2C    6.10
Cc1nc(-c2ccc(CN3CCN(C(C)C)CC3)cc2)cc2c1nc(-c1ccc(S(C)(=O)=O)cc1)n2C    6.10
